Values were extracted from patent US20200360469A1.

target: full-length (FL) BRAF^WT, 6x-HIS-BRAF-WT/FLAG (human, UniProt P15056 2-766); test: kinase activity inhibition (ELISA); with 0.1 nM Dabrafenib
Sequence (P15056 2-766): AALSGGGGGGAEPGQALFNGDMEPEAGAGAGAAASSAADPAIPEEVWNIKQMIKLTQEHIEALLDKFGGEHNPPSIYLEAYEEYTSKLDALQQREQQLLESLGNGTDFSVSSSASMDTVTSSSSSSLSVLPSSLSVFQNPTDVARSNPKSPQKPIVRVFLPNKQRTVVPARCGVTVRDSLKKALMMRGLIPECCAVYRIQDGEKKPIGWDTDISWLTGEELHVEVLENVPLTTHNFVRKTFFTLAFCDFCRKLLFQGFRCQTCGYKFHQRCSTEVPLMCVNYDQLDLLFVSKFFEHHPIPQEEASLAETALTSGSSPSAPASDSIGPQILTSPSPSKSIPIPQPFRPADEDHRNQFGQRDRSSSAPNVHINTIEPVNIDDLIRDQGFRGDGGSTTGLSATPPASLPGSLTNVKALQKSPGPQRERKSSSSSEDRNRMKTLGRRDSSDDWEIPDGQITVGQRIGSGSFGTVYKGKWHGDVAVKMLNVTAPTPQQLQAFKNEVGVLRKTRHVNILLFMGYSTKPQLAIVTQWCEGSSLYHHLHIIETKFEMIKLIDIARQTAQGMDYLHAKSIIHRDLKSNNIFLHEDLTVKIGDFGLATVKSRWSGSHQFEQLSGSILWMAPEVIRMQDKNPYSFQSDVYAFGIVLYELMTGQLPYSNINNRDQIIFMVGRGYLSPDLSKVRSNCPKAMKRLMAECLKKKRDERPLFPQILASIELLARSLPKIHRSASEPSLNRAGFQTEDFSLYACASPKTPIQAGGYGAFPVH
MEASURE NAME: IC50 (nM)
# value in nM; strip the unit string

Qu. // returns reported IC50 for input TRHVNILLFM [braftide]
Ans. 280
